Reference source: the Deep4Chem optical property database

# emission maximum annotations
Test: solvent given as SMILES
Conditions: in CC#N
The answer is to be given in nm; state only the numeric part.

Nc1ncnc2c1c(C#Cc1ccc3ccccc3c1)cn2[C@H]1C[C@H](O)[C@@H](CO)O1
400
COC(=O)C(NC(=O)OC(C)(C)C)c1ccc2oc(-c3ccc(OC(=O)c4ccccc4)cc3O)nc2c1 (stereo not given)
471
FC(F)(F)c1ccc(/C=C/c2ccc(-c3nnc(-c4ccc(-c5cc6ccccc6s5)cc4)o3)cc2)cc1
388

For COc1ccc(C#Cc2ccc(C#N)cc2)cc1OC the molecule record lists emission maximum as 451

For CCC1=C(C)c2cc3c(OC)cc(OC)cc3c(=O)n2C1=O the molecule record lists emission maximum as 476
